# System: HMEC mammary epithelial cells
# protocol_description: XTT dye binding cytotoxicity assay, HMEC
# Format: cell-based
# test_context: Homo sapiens, mammary epithelial cells (untransformed), 72 h, read-out: IC50
# Protocol: All cell lines described herein were obtained from the ATCC and maintained in media formulations as recommended by the supplier. The cell lines were tested for mycoplasma contamination prior to incubation at 37° C. in 5% carbon dioxide. […] Antiproliferative activities of the onium salts were determined using the XTT dye binding assay. […] The inhibition of cell proliferation was quantified using a Molecular Devices Microplate Reader. The absorbance of XTT was measured at 450 nM. […]
One threshold, 60 nM, splits the recorded IC50 values: lower ones are true (1), equal or higher ones are false (0).

- CC(=O)O[C@H]1C(=O)[C@]2(C)[C@@H](Oc3cccc[n+]3C)C[C@H]3OC[C@@]3(OC(C)=O)[C@H]2[C@H](OC(=O)c2ccccc2)[C@]2(O)C[C@H](OC(=O)[C@H](O)[C@@H](NC(=O)c3ccccc3)c3ccccc3)C(C)=C1C2(C)C [Compound 3]: false (0)

In the record for CC(=O)O[C@H]1C(=O)[C@@]2(C)[C@H]([C@H](OC(=O)c3ccsc3)[C@]3(O)C[C@H](OC(=O)[C@H](Oc4cccc[n+]4C)[C@@H](NC(=O)c4ccccc4)c4ccccc4)C(C)=C1C3(C)C)[C@]1(OC(C)=O)CO[C@@H]1C[C@@H]2O [Compound 4] , is IC50 less than 60 nM?
false (0)

In the record for CC(=O)O[C@@]12CO[C@@H]1C[C@H](O)[C@@]1(C)C(=O)[C@H](O)C3=C(C)[C@@H](OC(=O)[C@H](O)[C@@H](NC(=O)OC(C)(C)C)c4ccccc4)C[C@@](O)([C@@H](OC(=O)c4ccccc4)[C@H]21)C3(C)C [Compound 5, reference compound] , is IC50 less than 60 nM?
true (1)

In the record for CC(=O)O[C@@]12CO[C@@H]1C[C@H](O)[C@@]1(C)C(=O)[C@H](O)C3=C(C)[C@@H](OC(=O)[C@H](Oc4cccc[n+]4C)[C@@H](NC(=O)OC(C)(C)C)c4ccccc4)C[C@@](O)([C@@H](OC(=O)c4ccccc4)[C@H]21)C3(C)C [Compound 6] , is IC50 less than 60 nM?
true (1)

In the record for CC(=O)O[C@H]1C(=O)[C@@]2(C)[C@H]([C@H](OC(=O)c3ccccc3)[C@]3(O)C[C@H](OC(=O)[C@H](Oc4cccc[n+]4C)[C@@H](NC(=O)c4ccccc4)c4ccccc4)C(C)=C1C3(C)C)[C@]1(OC(C)=O)CO[C@@H]1C[C@@H]2O [Compound 2] , is IC50 less than 60 nM?
false (0)
